Reference source for all entries: patent US20120010075A1

Test system: Leptosphaeria nodorum (LEPTNO)
Assay: In vitro fungitoxicity of hydrazones with and without copper towards Leptosphaeria nodorum (Example 26)
Type: cell-based
Conditions: copper-plus medium (CuCl2 10 μM); test compound Concn. 0.05 μg/mL; 72 h at 25° C.
measured attribute: LEPTNO % Inhn. Plus Copper Observed (%)
Reply with just the number (in %).

Solved cases below.
compound="O=C(N/N=C/c1cc(C(F)(F)F)cc(Cl)c1O)c1cccc([N+](=O)[O-])c1 [Example 327]" measured_attribute="LEPTNO % Inhn. Plus Copper Observed" reading=95.7
compound="C/C(=N\\NC(=O)c1ccccc1C)c1cc(F)cc(F)c1O [Example 573]" measured_attribute="LEPTNO % Inhn. Plus Copper Observed" reading=98.4
compound="O=C(N/N=C/c1c(C(F)(F)F)ccc(Cl)c1O)c1ccccc1O [Example 455]" measured_attribute="LEPTNO % Inhn. Plus Copper Observed" reading=100.0
compound="C/C(=N\\NC(=O)c1cccc(Cl)c1)c1cc(F)cc(F)c1O [Example 577]" measured_attribute="LEPTNO % Inhn. Plus Copper Observed" reading=97.9

Entry COc1cccc(/C(C)=N/NC(=O)c2cccc(Cl)c2)c1O [Example 304] , LEPTNO % Inhn. Plus Copper Observed reported as 97.9

----------
Test system: Leptosphaeria nodorum (LEPTNO)
Experiment: In vitro fungitoxicity of hydrazones with and without copper towards Leptosphaeria nodorum (Example 26)
Format: cell-based
Conditions: copper-plus medium (CuCl2 10 μM); test compound Concn. 0.05 μg/mL; 72 h at 25° C.
measured attribute: LEPTNO % Inhn. Plus Copper Observed (%)
Reply with just the number (in %).

record_smiles=O=C(N/N=C/c1c(C(F)(F)F)ccc(Cl)c1O)c1cccc(F)c1 reading=98.5
record_smiles=COc1ccc(O)c(C(=O)N/N=C(\C)c2cc(Cl)cc(Cl)c2O)c1 reading=94.7
record_smiles=C/C(=N\NC(=O)c1ccccc1Br)c1cc(Br)cc(Br)c1O reading=97.3
record_smiles=C/C(=N\NC(=O)c1ccccc1C)c1cc(Cl)ccc1O reading=97.3
record_smiles=COc1ccc(/C(C)=N/NC(=O)c2ccc(C)cc2)c(O)c1OC reading=97.3

Entry "Cc1cccc(C(=O)N/N=C/c2ccc(Cl)c(Cl)c2O)c1" , LEPTNO % Inhn. Plus Copper Observed reported as 95.4

Entry "COc1ccc(C(=O)N/N=C/c2cc(Cl)cc(Cl)c2O)c(O)c1" , LEPTNO % Inhn. Plus Copper Observed reported as 96.6

Entry "O=C(N/N=C/c1c(Cl)ccc(Cl)c1O)c1cccc([N+](=O)[O-])c1" , LEPTNO % Inhn. Plus Copper Observed reported as 96.1

Entry "C/C(=N\NC(=O)c1ccccc1)c1cc(C)ccc1O" , LEPTNO % Inhn. Plus Copper Observed reported as 98.3

----------
System: Leptosphaeria nodorum (LEPTNO)
Assay: In vitro fungitoxicity of hydrazones with and without copper towards Leptosphaeria nodorum (Example 26)
Assay type: cell-based
Conditions: Parastagonospora nodorum, 72 h, copper-minus medium; test compound Concn. 0.05 μg/mL; 72 h at 25° C.; read-out: LEPTNO % Inhn. Minus Copper Observed
Lab note: anything with inhibition of growth at 0.05 µg/mL at or over 10% counts as Satisfied; the rest go in Not satisfied.

compound="C/C(=N\\NC(=O)c1ccccc1O)c1cccc(Cl)c1O [Example 503]" qualitative_label="Not satisfied"
compound="COc1ccc(C(=O)N/N=C(\\C)c2c(O)cc(OC)cc2OC)cc1 [Example 569]" qualitative_label="Not satisfied"

Consider the record given below.
Exam item: Item O=C(N/N=C/c1cc(Cl)cc(Cl)c1O)c1cc2ccccc2cc1O [Example 563] with inhibition of growth at 0.05 µg/mL of 10% or above?
Marked response: Satisfied

----------
Each item that follows carries a reported TLB % Control.
Tested on: Phytophthora infestans
Assay type: in vivo, Phytophthora infestans on tomato
Details: hydrazone 50 ppm + 50 μM CuCl2.2H2O, applied 24 h before inoculation, assessed 7 days after inoculation, tomato
Reply with just the number (in %).

record_smiles=O=C(N/N=C/c1cc(Cl)cc(Br)c1O)c1cccc(Cl)c1 measured_attribute="TLB % Control" reading=84.2
record_smiles=O=C(Cc1ccc(F)cc1)N/N=C/c1cc(Cl)cc(Cl)c1O measured_attribute="TLB % Control" reading=73.0
record_smiles=O=C(N/N=C/c1cc(Cl)cc(Cl)c1O)c1cccc(OC(F)(F)F)c1 measured_attribute="TLB % Control" reading=97.0
record_smiles=Cc1cccc(C(=O)N/N=C/c2cc(Cl)cc(Br)c2O)c1O measured_attribute="TLB % Control" reading=88.4

Entry "C/C(=N\NC(=O)c1ccccc1C)c1ccccc1O" , TLB % Control reported as 51.0

Entry "Cc1cc(O)c(/C=N/NC(=O)c2ccccc2)cc1Cl" , TLB % Control reported as 66.1

Entry "O=C(N/N=C/c1cc(Cl)cc(Cl)c1O)c1ccccc1Oc1ccccc1" , TLB % Control reported as 54.6

Entry "C/C(=N\NC(=O)c1ccccc1)c1ccccc1O" , TLB % Control reported as 65.0

Entry "C/C(=N\NC(=O)CCc1ccccc1)c1ccccc1O" , TLB % Control reported as 62.0

----------
System: Phytophthora infestans
Type: in vivo, Phytophthora infestans on tomato
Conditions: hydrazone 50 ppm + 50 μM CuCl2.2H2O, applied 24 h before inoculation, assessed 7 days after inoculation, tomato
Each item that follows carries a reported TLB % Control.
Reply with just the number (in %).

Entry "O=C(N/N=C(\CCc1ccccc1)c1ccccc1O)c1c(Cl)cccc1Cl" , TLB % Control reported as 49.0

----------
System: Phytophthora infestans
Type: in vivo, Phytophthora infestans on tomato
Details: hydrazone 50 ppm + 50 μM CuCl2.2H2O, applied 24 h before inoculation, assessed 7 days after inoculation, tomato
Each item that follows carries a reported TLB % Control.
Reply with just the number (in %).

Entry "Cc1ccc(C(=O)N/N=C/c2ccccc2O)c(Br)c1" , TLB % Control reported as 52.7

Entry "CCc1ccc(C(=O)N/N=C/c2cc(Cl)cc(Cl)c2O)cc1" , TLB % Control reported as 81.0

Entry "O=C(N/N=C/c1cc(Cl)ccc1O)c1ccccc1Br" , TLB % Control reported as 70.9

Entry "O=C(N/N=C/c1cc(Cl)ccc1O)c1cccc([N+](=O)[O-])c1" , TLB % Control reported as 96.0

Entry "CC/C(=N\NC(=O)c1c(Cl)cccc1Cl)c1ccccc1O" , TLB % Control reported as 40.0

Entry "C/C(=N\NC(=O)c1ccc(C)cc1)c1cc(Br)ccc1O" , TLB % Control reported as 21.0

Entry "COc1ccc(O)c(/C=N/NC(=O)c2ccccc2)c1" , TLB % Control reported as 36.6

Entry "C/C(=N\NC(=O)c1ccccc1Cl)c1ccc(Cl)cc1O" , TLB % Control reported as 28.0

Entry "O=C(N/N=C/c1cc(Br)cc(Br)c1O)c1cc(Cl)cc(Cl)c1" , TLB % Control reported as 89.5

Entry "O=C(N/N=C/c1cc(C(F)(F)F)cc(C(F)(F)F)c1O)c1ccccc1" , TLB % Control reported as 89.8

Entry "Cc1ccccc1C(=O)N/N=C/c1cc(Br)ccc1O" , TLB % Control reported as 84.7

Entry "COc1ccc(C(=O)N/N=C/c2cc(Cl)cc(Cl)c2O)cc1" , TLB % Control reported as 15.8

Entry "O=C(N/N=C/c1ccccc1O)c1cccc(C(F)(F)F)c1" , TLB % Control reported as 60.0

Entry "O=C(N/N=C/c1c(O)ccc(Cl)c1Cl)c1ccccc1" , TLB % Control reported as 62.7

----------
Test system: Phytophthora capsici
Experiment: In vitro fungitoxicity of hydrazones with and without copper towards Phytophthora capsici (Example 28, Table 3)
Format: cell-based
Details: Phytophthora capsici; 0.039 μg/mL; copper-minus AS medium; 48 h; read-out: % Inhn Minus copper Observed
Each item that follows carries a reported inhibition of growth at 0.039 µg/mL.
Reply with just the number (in %).

Solved cases below.
record_smiles=O=C(N/N=C/c1cc(I)cc(I)c1O)c1ccccc1 reading=11.8
record_smiles=O=C(N/N=C/c1cc(Br)cc(Br)c1O)c1cccc(F)c1 reading=37.9
record_smiles=O=C(Cc1ccc(Cl)cc1)N/N=C/c1cc(Cl)cc(Cl)c1O reading=16.3
record_smiles=O=C(N/N=C/c1cc(Cl)cc(Cl)c1O)c1ccccc1F reading=70
record_smiles=COc1cccc(C(=O)N/N=C/c2cc(Cl)cc(Cl)c2O)c1C reading=23.6

Item: "O=C(N/N=C/c1ccccc1O)c1ccc(-c2ccccc2)cc1" | System: Phytophthora capsici | inhibition of growth at 0.039 µg/mL: 0

Item: "O=C(N/N=C/c1ccccc1O)c1cccc(Br)c1" | System: Phytophthora capsici | inhibition of growth at 0.039 µg/mL: 25.9

Item: "O=C(N/N=C/c1ccccc1O)c1cccc(C(F)(F)F)c1" | System: Phytophthora capsici | inhibition of growth at 0.039 µg/mL: 17.6

Item: "O=C(N/N=C/c1cc(Cl)cc(Cl)c1O)c1c(Cl)cccc1Cl" | System: Phytophthora capsici | inhibition of growth at 0.039 µg/mL: 54.2

Item: "O=C(CCc1cc(Br)c(O)c(Br)c1)N/N=C/c1cc(Cl)cc(Cl)c1O" | System: Phytophthora capsici | inhibition of growth at 0.039 µg/mL: 18.6
